Cited source for all entries: ChEMBL document CHEMBL1148796

Assignment: determine reported CC50 for the given molecules.
experiment: Cytotoxicity against macrophages; format: cell-based, Macrophage; conditions: human, read-out: TC50 (the source's name)

Entry `Cc1cc(C)cc(S(=O)(=O)c2c(C(N)=O)[nH]c3ccc(Cl)c(F)c23)c1` ; CC50 = > 20 µM

The measured CC50 associated with `Cc1cc(C)cc(S(=O)(=O)c2c(C(N)=O)[nH]c3ccc(F)c(F)c23)c1` reads > 20 µM

====

system: Human immunodeficiency virus 1; assay: Antiviral activity against wild type HIV1 3B in lymphocytes assessed as reduction of p24 antigen production; assay type: functional; details: Human immunodeficiency virus 1, 3B; read-out: ED50 (the source's name)
For each of the compounds below, state its EC50.
Provide only the numeric value, understood in nM.

Lab note: `Cc1cc(C)cc(S(=O)(=O)c2c(C(N)=O)[nH]c3ccc(F)c(F)c23)c1` gave EC50 of 20

Documented EC50 of `Cc1ccnc2c1NC(=O)c1cccnc1N2C1CC1` : 90

`O=C1Nc2ccc(Cl)cc2[C@@](C#CC2CC2)(C(F)(F)F)O1` has a reported EC50 of 7

// recorded EC50 for `Cc1cc(C)cc(S(=O)(=O)c2c(C(N)=O)[nH]c3ccc(Cl)c(F)c23)c1` : 8
